measurement-target: FGFR3 (UniProt P22607)
Sequence (P22607 whole entry, looked up): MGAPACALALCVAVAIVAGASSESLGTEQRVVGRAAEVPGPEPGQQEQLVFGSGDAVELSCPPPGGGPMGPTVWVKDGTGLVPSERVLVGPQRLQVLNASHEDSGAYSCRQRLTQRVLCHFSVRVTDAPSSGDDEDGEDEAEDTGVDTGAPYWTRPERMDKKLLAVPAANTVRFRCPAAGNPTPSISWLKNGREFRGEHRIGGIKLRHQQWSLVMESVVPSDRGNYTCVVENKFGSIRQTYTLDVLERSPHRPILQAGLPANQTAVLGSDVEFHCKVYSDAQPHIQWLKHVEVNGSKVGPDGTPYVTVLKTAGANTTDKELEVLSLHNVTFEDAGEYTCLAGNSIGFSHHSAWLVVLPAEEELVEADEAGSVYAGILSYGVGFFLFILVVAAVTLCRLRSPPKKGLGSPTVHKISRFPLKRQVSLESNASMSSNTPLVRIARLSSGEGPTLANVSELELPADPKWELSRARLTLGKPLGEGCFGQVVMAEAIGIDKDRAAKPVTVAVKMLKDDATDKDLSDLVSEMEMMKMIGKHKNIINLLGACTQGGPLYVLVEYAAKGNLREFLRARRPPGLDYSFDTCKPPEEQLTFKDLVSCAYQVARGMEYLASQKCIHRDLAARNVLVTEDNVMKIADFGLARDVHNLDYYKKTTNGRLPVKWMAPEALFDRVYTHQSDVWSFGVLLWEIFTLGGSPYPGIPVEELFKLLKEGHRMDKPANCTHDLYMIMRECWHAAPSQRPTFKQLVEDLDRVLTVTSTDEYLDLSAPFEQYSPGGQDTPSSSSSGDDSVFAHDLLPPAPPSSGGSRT
experiment: phosphorylation enrichment, bacterial display (enrichment ratio); higher = better substrate or ligand; peptides without Tyr show the background
Would you mind labelling by phosphorylation enrichment? At or over 0.8 is Condition met, under is Condition not met.

Please review the following examples before continuing.
TLQRMYGCDVG [HLA-B_Y123_S121R] = Condition not met
QCTSAYLLQPE [NANS_Y188_P189L] = Condition met
NIKKEYTKMVQ [PMS2_Y181_A182T] = Condition not met
SLALFYRKVYH [RBL1_Y792] = Condition not met
KDQGIYEDFVE [MYL6_Y86_T85I_YF] = Condition met
LEFAKYGSLRG [RET_Y809_V804L_YF] = Condition not met
RLLVVYPWTQK [HBG1_Y36_R41K] = Condition not met
LSEEKYELKEG [TREM1_Y29_T25S] = Condition met
HHTDECEYDEL [TGM1_Y134_Y134C] = Condition met
GAVDTYCRHNY [HLA-DRB1_Y107_A102G] = Condition not met

Evaluate TYGQVYKGRHV [TNIK_Y40] : phosphorylation enrichment at minimum 0.8? Condition not met

Input VFSSDYFSFVL [USP24_Y2138_YF] Condition met

Also QLQVFYATLDQ [MIPEP_Y579] ? Condition met

----------
The entries below come with measured phosphorylation enrichment values attached.
measurement-target: Fes (UniProt P07332)
Sequence (P07332 whole entry, looked up): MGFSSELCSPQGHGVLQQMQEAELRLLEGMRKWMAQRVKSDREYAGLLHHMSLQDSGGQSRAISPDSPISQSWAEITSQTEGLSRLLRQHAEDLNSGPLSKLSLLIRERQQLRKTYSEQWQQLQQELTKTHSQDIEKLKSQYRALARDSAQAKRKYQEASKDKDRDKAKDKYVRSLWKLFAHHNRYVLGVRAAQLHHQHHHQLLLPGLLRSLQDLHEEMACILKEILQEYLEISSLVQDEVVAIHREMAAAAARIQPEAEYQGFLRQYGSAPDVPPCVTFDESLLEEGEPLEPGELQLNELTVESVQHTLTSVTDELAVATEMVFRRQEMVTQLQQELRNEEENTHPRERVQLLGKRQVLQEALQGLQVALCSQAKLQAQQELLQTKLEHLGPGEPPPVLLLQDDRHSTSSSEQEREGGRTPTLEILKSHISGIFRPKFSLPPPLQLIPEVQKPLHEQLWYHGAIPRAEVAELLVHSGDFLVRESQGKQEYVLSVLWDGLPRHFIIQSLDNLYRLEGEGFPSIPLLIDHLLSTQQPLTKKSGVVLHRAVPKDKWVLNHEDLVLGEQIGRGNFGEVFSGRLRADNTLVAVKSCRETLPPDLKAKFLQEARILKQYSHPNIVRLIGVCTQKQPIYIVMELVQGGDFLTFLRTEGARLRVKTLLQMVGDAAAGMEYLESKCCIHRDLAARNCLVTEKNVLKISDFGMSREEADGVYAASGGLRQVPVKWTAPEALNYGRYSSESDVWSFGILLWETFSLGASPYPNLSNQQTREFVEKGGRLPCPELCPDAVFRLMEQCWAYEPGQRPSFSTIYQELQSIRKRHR
experiment: phosphorylation enrichment, bacterial display (enrichment ratio); higher = better substrate or ligand; peptides without Tyr show the background
Give a plain numeric answer without units written out.

Recorded phosphorylation enrichment, per entry:
RVGNMYMRGLS [ABCG8_Y209_V210M] = 0.966
ACDALYPPGPP = 0.861
IHTEFYDGLFP [BCR_Y561_K558T] = 1.34
IMITDYLLLFR [INSR_Y87] = 1.18

Consider the sequence SYCYRYCCAAR [SUMF1_Y344_R345C] and give its measured phosphorylation enrichment. 0.976

Proceed to LEEFQYIGELQ [MSH2_Y856_S860L] 2.04

Same read-out for VLSIDYYFPPQ [AR_Y552_P549S] ? 1.09

----------
Listing of entries alongside the reported phosphorylation enrichment.
measurement-target: FGFR3 (UniProt P22607)
experiment: phosphorylation enrichment, bacterial display (enrichment ratio); higher = better substrate or ligand; peptides without Tyr show the background
# print the numeric value only

Recorded results for 3 sequences are shown here.
QNVADYMRFLM [RPL5_Y207_YF] = 1.09
TIMTDYNPNFC [ALK_Y1092_YF] = 0.549
HLEKKYVHRDS [CSF1R_Y708_R710H] = 0.678

Recorded phosphorylation enrichment for RLLRGHDQSAF [HLA-C_Y137_Y137H_YF] , please? 0.47

And then NLGQQYNSPQE [UMPS_Y432] , what is it? 0.675

Another sequence: LRLSSYSTTIR [CYP7B1_Y365] 0.756

----------
measurement-target: SHP2-C SH2
experiment: SH2 binding enrichment of the phosphorylated peptide, bacterial display (enrichment ratio); higher = better substrate or ligand; peptides without Tyr show the background
Recorded SH2 binding enrichment values for a group of sequences are listed next.

Some solved entries appear below for comparison.
ILNANYMAKRL [GLDC_Y839] = 0.509
QTPVLYTMLDH [MPZ_Y220_A221T] = 11.8
YSIAQYCCRMG [LRRK2_Y2023_G2019S] = 1.18
TLARLYHRDST [LRIG1_Y1029_P1031R] = 0.608
PATFTYDEFKK [COL8A2_Y648_YF] = 0.53
EVESPYEVHDY [GIGYF2_Y1168] = 0.599
SIKDKYVMALF [KCNH2_Y611_T613M_YF] = 0.845
GRDQPYSGTGD [TYRO3_Y828_A831T] = 0.49
NSNAAYEQSHF [LRIF1_Y714] = 0.663
QQLQGYIPSNY [FRK_Y99] = 0.477

Report SH2 binding enrichment for VVKTVYSLQPS [KNSTRN_Y87_P92S] please. 0.981

Next up: RALRHYFKLNI [ETV6_Y401_YF] 2.6

Another sequence: FEPWVYSLSFE [PRKDC_Y647_F649L_YF] 0.742

Let us now turn to VFSSDYFSFVL [USP24_Y2138_YF] 0.764

----------
measurement-target: EPHB2 (UniProt P29323)
Sequence (P29323 whole entry, looked up): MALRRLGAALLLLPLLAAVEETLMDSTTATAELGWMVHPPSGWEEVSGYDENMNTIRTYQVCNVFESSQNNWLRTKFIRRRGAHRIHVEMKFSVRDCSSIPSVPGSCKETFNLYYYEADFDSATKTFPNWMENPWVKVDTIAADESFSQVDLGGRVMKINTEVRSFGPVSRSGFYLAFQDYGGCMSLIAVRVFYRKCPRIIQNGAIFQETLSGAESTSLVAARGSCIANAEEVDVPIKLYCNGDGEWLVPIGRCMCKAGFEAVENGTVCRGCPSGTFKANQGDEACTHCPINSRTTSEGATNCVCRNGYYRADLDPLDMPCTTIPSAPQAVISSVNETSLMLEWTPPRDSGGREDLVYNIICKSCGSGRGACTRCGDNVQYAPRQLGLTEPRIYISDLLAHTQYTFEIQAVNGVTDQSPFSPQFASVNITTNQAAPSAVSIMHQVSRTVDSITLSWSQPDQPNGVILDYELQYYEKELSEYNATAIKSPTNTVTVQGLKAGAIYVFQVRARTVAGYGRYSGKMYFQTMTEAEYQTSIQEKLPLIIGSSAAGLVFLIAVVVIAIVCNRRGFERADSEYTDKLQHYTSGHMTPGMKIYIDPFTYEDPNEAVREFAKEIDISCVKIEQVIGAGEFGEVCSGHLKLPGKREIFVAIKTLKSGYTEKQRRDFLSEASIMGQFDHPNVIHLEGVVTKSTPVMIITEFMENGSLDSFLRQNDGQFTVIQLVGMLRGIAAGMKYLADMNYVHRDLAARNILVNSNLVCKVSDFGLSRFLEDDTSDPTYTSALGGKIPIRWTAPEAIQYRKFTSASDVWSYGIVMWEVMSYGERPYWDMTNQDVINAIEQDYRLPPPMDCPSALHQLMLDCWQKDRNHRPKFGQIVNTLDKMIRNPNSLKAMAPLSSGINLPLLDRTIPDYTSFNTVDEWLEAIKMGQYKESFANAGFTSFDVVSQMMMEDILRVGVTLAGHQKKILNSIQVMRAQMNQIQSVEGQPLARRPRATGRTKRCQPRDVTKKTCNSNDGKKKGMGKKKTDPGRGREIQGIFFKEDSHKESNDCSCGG
experiment: phosphorylation enrichment, bacterial display (enrichment ratio); higher = better substrate or ligand; peptides without Tyr show the background
Listed here: items and their measured phosphorylation enrichment.
// response body must contain only the number

Examples with answers:
FVGGFYGGCNE [CTSC_Y352_YF] = 0.752
FRAVKYLQMVG [AVPR2_Y117_C112Y_YF] = 0.393
GYEEAYSVSKK [PAFAH1B1_Y28_F31S] = 0.432
GFITSYREEEQ = 0.775

Bench note: what phosphorylation enrichment did FGVTLYPNSGE [MEP1A_Y472_R476G] show? 0.726

----------
measurement-target: EPHB2 (UniProt P29323)
experiment: phosphorylation enrichment, bacterial display (enrichment ratio); higher = better substrate or ligand; peptides without Tyr show the background
result-type: phosphorylation enrichment

Which measured phosphorylation enrichment belongs to MEIHAYRKLLE [LMNA_Y376] , tested on EPHB2 (UniProt P29323)? 0.67

----------
measurement-target: EPHB1 (UniProt P54762)
Sequence (P54762 whole entry, looked up): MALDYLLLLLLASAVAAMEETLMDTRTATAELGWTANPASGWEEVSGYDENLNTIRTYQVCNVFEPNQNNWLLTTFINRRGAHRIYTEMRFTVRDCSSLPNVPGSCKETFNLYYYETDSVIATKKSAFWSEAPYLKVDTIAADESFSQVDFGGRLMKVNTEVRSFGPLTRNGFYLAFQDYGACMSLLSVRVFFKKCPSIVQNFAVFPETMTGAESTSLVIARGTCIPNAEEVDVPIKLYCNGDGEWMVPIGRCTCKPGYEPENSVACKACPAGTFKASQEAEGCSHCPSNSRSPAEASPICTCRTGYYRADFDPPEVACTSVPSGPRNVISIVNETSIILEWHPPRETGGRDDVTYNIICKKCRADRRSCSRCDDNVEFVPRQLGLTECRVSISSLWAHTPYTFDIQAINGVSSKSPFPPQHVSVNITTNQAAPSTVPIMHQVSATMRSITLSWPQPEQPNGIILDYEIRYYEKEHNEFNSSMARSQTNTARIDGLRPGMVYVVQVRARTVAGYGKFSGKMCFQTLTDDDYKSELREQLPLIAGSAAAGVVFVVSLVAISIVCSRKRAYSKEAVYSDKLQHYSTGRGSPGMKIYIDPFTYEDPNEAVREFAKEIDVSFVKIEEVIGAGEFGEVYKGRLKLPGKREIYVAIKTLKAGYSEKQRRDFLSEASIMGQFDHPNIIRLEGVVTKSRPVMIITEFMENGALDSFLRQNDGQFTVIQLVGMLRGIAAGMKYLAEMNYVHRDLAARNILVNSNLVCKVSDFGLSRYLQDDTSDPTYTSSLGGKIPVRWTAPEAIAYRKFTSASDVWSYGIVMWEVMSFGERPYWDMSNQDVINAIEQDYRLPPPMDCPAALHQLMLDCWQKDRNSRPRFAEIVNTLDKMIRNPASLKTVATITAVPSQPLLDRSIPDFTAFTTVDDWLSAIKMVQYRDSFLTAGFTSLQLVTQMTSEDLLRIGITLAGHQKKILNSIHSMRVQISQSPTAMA
experiment: phosphorylation enrichment, bacterial display (enrichment ratio); higher = better substrate or ligand; peptides without Tyr show the background
Param threshold (0.5) applies to phosphorylation enrichment; output Condition met when value >= threshold, Condition not met when value < threshold.

Hi team, for TVEDHDFEGGI [TKT_Y563_Y563D_YF] , is the recorded phosphorylation enrichment at or above 0.5? Condition met

Next: PVADRYDQSFE [MAPK14_Y323_P322R] Condition not met

----------
measurement-target: SHP2-C SH2;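 further: peptide library displayed on the E. coli surface as eCPX fusions, selected cells deep-sequenced, score is each peptide's frequency after selection divided by its frequency in the input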
experiment: SH2 binding enrichment of the phosphorylated peptide, bacterial display (enrichment ratio); higher = better substrate or ligand; peptides without Tyr show the background
Decision: SH2 binding enrichment >= 0.8 yields Y, all other cases yield N.

Worked cases, answers included:
KKARAYGPGIE [FLNA_Y287] = Y
TPGPNYCPGFN [USH2A_Y463_R464C_YF] = N
GRVFVYHLSEQ [ITGAE_Y551_R552H_YF] = Y

Decide: SH2 binding enrichment of AHAGGYGAEAL [HBA1_Y25_E24G] >= 0.8? N

How about this sequence: QDGFSYLSRQM [LDLR_Y847_P848L_YF] N

Now this one: NLPGGYSGSVK [MCPH1_Y606] N

Moving on to WRPFGYPHRRR [BCS1L_Y181_R183H] N

Moving on to TPRNTYKMTSV [MKI67_Y849_L854V] N

Similarly, APSHAYHGGVL [ANO1_Y981] ? N

What do you get for SLALFYRKVFH [RBL1_Y792_YF] ? Y

Further, for FMCKVYSDRQP [FGFR1_Y280_P283R] ? N

Note, next up: ETAENYLGYTA [HSPA9_Y181_H184Y] N

Another sequence: NDENIYKGLPD [VAV3_Y141_D139N] N

Cool, now RLLVFYPWTQR [HBB_Y36_V35F] Y

Try this sequence next: SYCYRYCCAAR [SUMF1_Y344_R345C] N

Moving on to DTQNSYRCATS [TSC1_Y304_G305R] N

Also EELLHYAIVTP [POC5_Y37] , if possible. Y

----------
Tested on: c-Src
experiment: phosphorylation enrichment, bacterial display (enrichment ratio); higher = better substrate or ligand; peptides without Tyr show the background
result-type: phosphorylation enrichment
Could you respond with only the numeric value?

Before answering, review these 3 worked examples.
LGRTVYADCLA [ABCA4_Y2063_L2060R] = 0.903
VDASFYGGRGV [ANTXR2_Y381_YF] = 0.391
QDGFSYPSRQM [LDLR_Y847_YF] = 0.398

For c-Src, provide phosphorylation enrichment of KLADMYGGGED [CDH1_Y876] please. 0.42

Try this sequence next: RRNNSYTCFTA [SLC20A2_Y386_YF] 1.69

----------
Test system: c-Abl (mouse)
experiment: phosphorylation enrichment, bacterial display (enrichment ratio); higher = better substrate or ligand; peptides without Tyr show the background
Rule: phosphorylation enrichment under 0.8 gives no, otherwise yes.

Answered cases to consult:
EKRDAYVSCLN [GSR_Y150_R153C] = no
KILGTYYETGS [PAX2_Y72_R71T] = no
EIEFLYNENTV [IARS1_Y680] = yes
MSSLYYANALF [HOXB7_Y6_T9A] = yes
RSAGKYDVYFI [MECP2_Y120_L124F] = yes

Switching to the query record.
# bool: phosphorylation enrichment of NKEAICSGFIR [SMCHD1_Y283_Y283C_YF] >= 0.8 no
